Molecular target: glycine receptor of the NMDA receptor complex (Rattus norvegicus, UniProt P35439)
Construct: Freshly dissected cortices and hippocampi are homogenized in 0.32 M sucrose; from tissue; host or cells: rat cerebral cortex and hippocampus, synaptic membranes (male Sprague-Dawley)
Assay: [3H]-glycine binding assay (Test A; in-vitro glycine receptor assay)
Design: species or system rat (male Sprague-Dawley)
Settings: 20 nanomolar [3H]-glycine, rat synaptic membranes, pH 7.1, 4° C.; read-out: IC50 in the [3H]-glycine binding assay
reported_endpoint: IC50 (µM)

[P] O=c1c2ccc(Cl)cc2[nH]c2c(=O)n(CCO)nc(O)c12
[Q] O=c1c2ccc(Cl)cc2[nH]c2c(O)nn(-c3ccc(O)cc3)c(=O)c12
# input Please indicate which item has the smaller measured IC50: P versus Q Respond with the label that goes with your answer.
# output Q
(Q: 0.12 µM, P: 40 µM)

---

The reader will find reported IC50 values listed item by item below.
Target: glycine receptor of the NMDA receptor complex (Rattus norvegicus, UniProt P35439)
Construct: Freshly dissected cortices and hippocampi are homogenized in 0.32 M sucrose; from tissue; host or cells: rat cerebral cortex and hippocampus, synaptic membranes (male Sprague-Dawley)
Test: [3H]-glycine binding assay (Test A; in-vitro glycine receptor assay)
Set-up: species or system rat (male Sprague-Dawley)
Details: read-out: IC50 in the [3H]Gly test

COc1ccc(-n2nc(O)c3c(=O)c4ccc(Cl)cc4[nH]c3c2=O)cc1 [Example 7] ... > 100 µM
O=c1c2ccc(Cl)cc2[nH]c2c(=O)n(-c3ccc(O)cc3)nc(O)c12 [Example 9] ... > 100 µM

Now look at this entry.
# input Which measured IC50 belongs to CC(=O)OCCn1nc(O)c2c(=O)c3ccc(Cl)cc3[nH]c2c1=O [3-(2-Acetoxyethyl)] , tested on glycine receptor of the NMDA receptor complex (Rattus norvegicus, UniProt P35439)?
# output > 100 µM
